assayNotes: Determination of acute toxicity (LD50), intravenous, male mice
testConditions: mouse, in vivo, 5 mice per batch, 6 days
resultType: LD50 at 144 h

// known answers, use as guide
{"entrySmiles": "CCN(CC)CCNS(=O)(=O)c1ccc(N)cc1OC", "LD50 at 144 h": "> 100 mg/kg"}
{"entrySmiles": "COc1cc([N+](=O)[O-])c(Cl)cc1S(=O)(=O)NCCN1CCCCC1", "LD50 at 144 h": "> 100 mg/kg"}
{"entrySmiles": "COc1cc(N)c(Cl)cc1S(=O)(=O)NCCN1CCCCC1", "LD50 at 144 h": "50 to 100 mg/kg"}
{"entrySmiles": "CCN(CC)CCNS(=O)(=O)c1cc(Cl)c(N)cc1OC", "LD50 at 144 h": "50 to 100 mg/kg"}
{"entrySmiles": "COc1cc(N)c(Cl)cc1S(=O)(=O)NCCCN(C)C", "LD50 at 144 h": "> 100 mg/kg"}

Ask: Looking for the measured LD50 at 144 h of CCN(CC)CCNS(=O)(=O)c1ccc([N+](=O)[O-])cc1OC , can you help?
Result: > 100 mg/kg

Ask: Here is the next compound: CCN(CC)CCCNS(=O)(=O)c1ccc(N)cc1OC
Result: 50 to 100 mg/kg

Ask: Also check COc1cc(N)c(Cl)cc1S(=O)(=O)NCCCN1CCCCC1
Result: 80 to 100 mg/kg

Ask: Moving on to CCN(CC)CCCNS(=O)(=O)c1cc(Cl)c(N)cc1OC
Result: 117 mg/kg
